- system_tested: human TSLP (human, UniProt Q969D9 29-159)
- experimental_protocol: cell-based or functional assay
measured_endpoint: IC50 TARC (nM)
One number for each entry, in nM.

# binder, IC50 TARC / nM
records = [
    ("BDG38.079 (antibody, V domains shown) VH: QMQLVESGGGVVQPGRSLRLSCAASGFAFRTYGMHWVRQAPGKGLEWVAVIWYDGSNTHYADSVKGRFTITRDNSKNTLNLQMNSLRAEDTAVYYCVRAPQWYLTAEAFDLWGQGTMVTVSS VL: SYVLTQPPSVSVAPGETATITCGGNMIGGYLVHWYQQKPGQAPLLVIYDDVDRPDRIPERFSGSNSGNTATLTISRVEAGDEADYYCQVWDHDSNTMVFGGGTKLTVL", 1.96),
]

Next up:
Request the reported IC50 TARC associated with BDG38.126 (antibody, V domains shown, IgG1) VH: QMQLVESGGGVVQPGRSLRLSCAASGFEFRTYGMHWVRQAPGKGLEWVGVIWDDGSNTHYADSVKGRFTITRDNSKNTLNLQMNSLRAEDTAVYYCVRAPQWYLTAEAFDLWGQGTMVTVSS VL: SYILTQPPSVSVAPGQTARITCGGNLIGAKLVHWYQQKPGQAPVLVIYDDSDRPSRIPERFSGSNIGNTATLTIERVEEGDEADYYCQVWDYSSDHMVFGGGTKLTVL 2.58
